Consider the following binders and their measured pKd readings.
# measured_target: T1, recombinant LAIR1 (human, UniProt Q6GTX8 22-165, limits assumed)
# T1 construct: also called LAIR1 (Octet analyte)
# T1 chain: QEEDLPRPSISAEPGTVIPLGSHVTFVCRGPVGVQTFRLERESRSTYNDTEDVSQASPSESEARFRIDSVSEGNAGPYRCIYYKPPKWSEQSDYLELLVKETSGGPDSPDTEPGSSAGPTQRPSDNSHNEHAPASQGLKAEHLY
# test_details: BLI (Octet), mAb on protein A sensor, recombinant LAIR1 0.1-200 nM, 1:1 fit
pKd: −log10 of the molar value.

{"columns": ["binder", "pKd"],
 "data": [
  ["LA-121 (antibody, V domains shown, Rabbit monoclonal IgG) VH: EQSVEESGGRLVTPGTPLTLTCTASGFSLYKYNIQWVRQAPGKGLEYIGASTYAGYTYYASWAIGRVTISRTSTTVDLKMTSPTTEDTATYFCARHIDGDYSGYALWGPGTLVTISS VL: ELDLTQTPASVSAAVGGTVTIKCQASQSIDTWFGWYQQKPGQSPKLLIYGASKLASGVPPRFKGSGSGTEFTLTISDLECADAATYYCQNTYYGVRYLGGAFGGGTEVEIK", 9.90],
  ["LA-259-2 (antibody, V domains shown, Rabbit monoclonal IgG) VH: QSVKESGGRLVTPGTPLTLTCTASGFSLYKYNIQWVRQAPGKGLEYIGASTYAGYTYYASWAKGRVTISRTSTTVDLKMTSPTTEDTATYFCARHIDGDYSGYALWGPGTLVTISS VL: ELVMTQTPASVSAAVGGTVTIKCQASQSIGTWFAWYQQKPGQSPKLLIYGPSKLASGVPPRFKGSGSGTEFTLTISDLECDDAATYYCQSNGGSISNGWGSFGGGTEVVVK", 9.71],
  ["LA-258-3 (antibody, V domains shown, Rabbit monoclonal IgG) VH: QSVKESGGDLVKPEGSLTLTCKASGFSFSNSYYMCWVRQAPGKGLEWIACIYTGSTSGTYYASWVNGRFTISKTPSTTVTLQMTSLTVADTATYFCSRKLTNFNGAYLDLWGPGTLVTISS VL: ELVLTQTPASVEAAVGGTVTINCQASQSISNLLAWYQQKPGQPPKVLIYKASTLASGVPSRFKGSGSGTDFTLTISDLECADAATYYCQANNGGSDNNFGGGTEVVVKA", 8.25],
  ["LA-258-2 (antibody, V domains shown, Rabbit monoclonal IgG) VH: QSVKESGGDLVKPEGSLTLTCKASGFSFSNSYYMCWVRQAPGKGLEWIACIYTGSTSGTYYASWVNGRFTISKTPSTTVTLQMTSLTVADTATYFCSRKLTNFNGAYLDLWGPGTLVTISS VL: ELVMTQTPSSVEAAVGGTVTIKCQASQSIYSYLAWYQQKPGQPPKVLIYKASTLASGVPSRFKGSGSGTDFTLTISDLECADAATYYCQANNGGSDNNFGGGTEVEIK", 10.47]
]}
